Data credit: PubChem BioAssay (NCI)

Test system: HL-60(TB) leukemia
Experiment: NCI-60 one-dose screen, 48 h (100 = growth as untreated, 0 = no growth, -100 = all killed)
Conditions: 10 µM unless noted
Procedure: Growth inhibition of the HL-60(TB) human tumor cell line is measured as a screen for anti-cancer activity. Cells are grown in 96 well plates and exposed to the test compound for 48 hours. Compounds are tested at a single concentration, which is 10^-5 M for most compounds. The reported endpoint is percent growth (GI% or GIPRCNT), where numbers from 0 - 100% represent growth inhibition, and numbers from -100% - 0 represent cell death. For example, a value of 40 represents 60% growth inhibition. […]
About 83,000 compounds went through this panel and 20% of them were active in at least one assay; those are over-represented in the sample as a whole.
Binarize growth at 90%; below is criterion met, at or above is criterion not met.

Known results for compounds:
{"COMPOUND": "C=C(C)C1CC(O)C2(C)CCCC3C2C1CC(C)C3(C)CC/C(C)=C/C(O)C1CCC(=O)c2c(OC)cc(OC)cc21 (configuration not stated)", "CLASS_ASSIGNMENT": "criterion met"}
{"COMPOUND": "COc1cccc(-c2nn(-c3ccccc3)cc2-c2ccnc(NCCCNS(=O)(=O)c3ccc(Br)cc3)c2)c1", "CLASS_ASSIGNMENT": "criterion met"}
{"COMPOUND": "COc1cc(C(=O)OCCCCCCCCCCC[P+](c2ccccc2)(c2ccccc2)c2ccccc2)ccc1O", "CLASS_ASSIGNMENT": "criterion met"}
{"COMPOUND": "C=C(CO)[C@@H]1CC[C@]2(COC3CCCCO3)CC[C@]3(C)[C@H](CC[C@@H]4[C@@]5(C)C=C(C=O)C(=O)C(C)(C)[C@@H]5CC[C@]43C)[C@@H]12 (some centres not stated)", "CLASS_ASSIGNMENT": "criterion met"}
{"COMPOUND": "Cc1ccc(-c2ccc(Nc3ccccc3)nn2)cc1S(N)(=O)=O", "CLASS_ASSIGNMENT": "criterion met"}

Query string: A record lists CCCCCCCCCCCCCC/C=C\C(CC(=O)O)C(=O)O (configuration not stated) . Is its growth below 90%?
Result string: criterion met

Query string: Below 90% on growth? Entry CCN(CC)CCN1C(=O)c2c(c(C)c3c(oc4ccc(OC)cc43)c2C)C1=O
Result string: criterion not met

Query string: Is the reported growth for NC1=NN=C2N(N)C(=O)c3cnn(-c4ccccc4)c3N2c2nc(-c3ccccc3)cc(-c3ccccc3)c21 strictly below 90%?
Result string: criterion not met

Query string: Consider the compound c1ccc(-c2nnc(Nc3nnc(-c4ccccc4)s3)s2)cc1 . Is its growth strictly less than 90%?
Result string: criterion not met

Query string: Does the reported growth of the following compound sit strictly below 90%? CC(C)(C)c1ccc(Cn2c(-c3nonc3N)nc3ccccc32)cc1
Result string: criterion met
